Source: patent EP4227307A1

Target: human recombinant 6His-Nterm SHP2 full-length (Thr2-Arg593) (Homo sapiens, UniProt Q06124)
Construct: 6His-Nterm SHP2 full-length (Thr2-Arg593, R&D system); 6His (N)
Sequence (Q06124 2-593): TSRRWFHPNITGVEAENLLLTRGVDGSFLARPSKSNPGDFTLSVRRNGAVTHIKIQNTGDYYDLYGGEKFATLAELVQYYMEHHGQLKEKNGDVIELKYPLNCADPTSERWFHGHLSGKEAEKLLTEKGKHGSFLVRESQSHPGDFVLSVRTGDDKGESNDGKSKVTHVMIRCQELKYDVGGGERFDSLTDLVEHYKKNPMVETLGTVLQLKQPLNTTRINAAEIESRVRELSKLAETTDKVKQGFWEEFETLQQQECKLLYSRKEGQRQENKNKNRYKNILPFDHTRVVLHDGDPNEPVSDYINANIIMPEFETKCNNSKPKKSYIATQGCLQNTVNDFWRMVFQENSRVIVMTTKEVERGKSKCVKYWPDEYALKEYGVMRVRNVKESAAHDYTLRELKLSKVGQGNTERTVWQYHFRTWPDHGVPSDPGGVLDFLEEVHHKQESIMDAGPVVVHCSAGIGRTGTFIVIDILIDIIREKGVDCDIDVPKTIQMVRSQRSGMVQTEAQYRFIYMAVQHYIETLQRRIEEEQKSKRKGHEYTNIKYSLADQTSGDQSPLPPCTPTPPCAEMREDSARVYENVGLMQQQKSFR
Assay: SHP2 Phosphatase Assay (DiFMUP fluorescence)
Details: SHP2 0.2 nM pre-incubated with 100 nM bi-phosphorylated activating peptide; compound 1000-0.05 nM, 30 min pre-incubation; DiFMUP 20 µM, 45 min, room temperature; 10-concentration dose-response
Counter-ions that a name gives are not always drawn.
Please provide measured IC50 for the entries that follow.
State the answer as a number, implicitly in nM.

Q: Reported IC50 for Cc1nc(N2CCC3(CC2)Cc2ncccc2[C@H]3N)c2c(F)cnn2c1-c1ccccc1F [Compound 142, hydrochloride] : what is it?
Result: 26

Q: Which value of IC50 has been reported for COc1ccc2c(c1)[C@@H](N)C1(CCN(c3nc(C)c(-c4ccnc(C)c4Cl)n4nccc34)CC1)C2 [Compound 10, hydrochloride] in the records?
Result: 11

Q: Item under review: Cc1nc(N2CCC3(CC2)Cc2ncccc2[C@H]3N)c2ccnn2c1-c1cccc(CO)c1 . Reported IC50?
Result: 16

Q: // query IC50 value for entry Cc1nccc(-c2c(C)nc(N3CCC4(CC3)Cc3ncc(F)cc3[C@H]4N)c3ccnn23)c1Cl
Result: 15
